- target-or-system: PYL1-HAB1 (Arabidopsis thaliana)
- Construct: 6xHis (N); made in house; host or cells: E. coli BL21[DE3]pLysS (stated for GST-HAB1)
- Sequence (Q8VZS8 1-221): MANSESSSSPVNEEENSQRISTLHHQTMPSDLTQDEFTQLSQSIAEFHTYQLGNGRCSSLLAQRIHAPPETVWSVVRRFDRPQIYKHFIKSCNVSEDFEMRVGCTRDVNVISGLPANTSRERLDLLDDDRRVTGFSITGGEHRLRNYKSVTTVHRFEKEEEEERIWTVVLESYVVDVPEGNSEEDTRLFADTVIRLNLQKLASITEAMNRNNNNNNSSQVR
- Sequence (Q9CAJ0 23-511 partner): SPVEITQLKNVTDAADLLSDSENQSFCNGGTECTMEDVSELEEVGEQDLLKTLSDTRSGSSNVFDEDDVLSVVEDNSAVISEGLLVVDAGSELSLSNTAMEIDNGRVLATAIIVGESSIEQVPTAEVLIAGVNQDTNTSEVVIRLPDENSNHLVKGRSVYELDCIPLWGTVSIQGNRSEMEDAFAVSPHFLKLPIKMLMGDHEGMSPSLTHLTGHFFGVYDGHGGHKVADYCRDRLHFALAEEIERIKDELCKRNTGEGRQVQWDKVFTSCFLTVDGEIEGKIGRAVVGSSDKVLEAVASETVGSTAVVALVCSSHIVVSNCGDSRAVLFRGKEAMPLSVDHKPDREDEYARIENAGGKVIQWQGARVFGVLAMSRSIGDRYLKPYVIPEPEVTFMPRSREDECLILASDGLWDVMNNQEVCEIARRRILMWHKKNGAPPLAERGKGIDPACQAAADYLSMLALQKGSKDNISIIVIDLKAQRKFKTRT
- assay-comment: PP2C activity assay, PYL1-HAB1 inhibition
- Format: biochemical
- measurement-parameters: 200 nM test compound, 100 nM HAB1 PP2C, 200 nM receptor; read-out: % Inhibition of PYR/PYL-HAB1 at 200 nM: PYL1
property-name: activity at 0.2 µM (%)
Supply the numeric figure in %, leaving out any unit text.

cpd-smiles: CCCN1C(=O)CCc2cc(NS(=O)(=O)Cc3ccccc3F)cc(F)c21
assay-value: 46.7

cpd-smiles: CCCN1C(=O)CCc2cc(NS(=O)(=O)Cc3ccc(Cl)cc3)cc(F)c21
assay-value: 34.2

cpd-smiles: CCCN1C(=O)CCc2cc(NS(=O)(=O)Cc3ccccc3)cc(F)c21
assay-value: 51.4

cpd-smiles: CCCN1C(=O)CCc2cc(NS(=O)(=O)Cc3ccc(C)cc3)cc(Cl)c21
assay-value: 20.3

## Input Any idea what activity at 0.2 µM was measured for `CCCN1C(=O)CCc2cc(NS(=O)(=O)Cc3ccc(Cl)cc3Cl)cc(F)c21` ?
## Output 70.6

## Input Consider the molecule `CCCN1C(=O)CCc2cc(NS(=O)(=O)Cc3ccc(C#N)cc3F)cc(F)c21` and give its measured activity at 0.2 µM.
## Output 27.9

## Input Reported activity at 0.2 µM, molecule `CCCN1C(=O)CCc2cc(NS(=O)(=O)Cc3ccccc3C#N)cc(F)c21` : ____
## Output 82.4

## Input Query: activity at 0.2 µM; subject: `CCCN1C(=O)CCc2cc(NS(=O)(=O)Cc3ccc(Cl)cc3Br)cc(F)c21`
## Output 86.9

## Input Value lookup for activity at 0.2 µM; key = `CCCN1C(=O)CCc2cc(NS(=O)(=O)Cc3ccc([N+](=O)[O-])cc3)cc(F)c21`
## Output 53.2

FYI, the data here is from patent US11332443B2.
